The measured values listed here are drawn from ChEMBL document CHEMBL3621173.

Assay: Degradation half-life in human liver microsomes
Type: ADME
readoutLabel: half-life (h)
Write the answer as a number in h, unit excluded.

GET /values?readout=half-life&item= Cc1ccc(-c2c(C)noc2C)cc1S(=O)(=O)NC1CCCC1
0.117

GET /values?readout=half-life&item= COc1cc2c(cc1-c1c(C)noc1C)ncc1[nH]c(=O)n([C@H](C)c3ccccn3)c12
3.9

GET /values?readout=half-life&item= Cc1ccc(-n2c(C)nnc2C)cc1S(=O)(=O)NC1CCCC1
2.88

###

Hi there, I'd appreciate the recorded microsomal CLint for every entry that follows.
Test: Intrinsic clearance in mouse liver microsomes
Assay type: ADME
Conditions: read-out: CLH
Write the answer as a number in µL/min/mg, unit excluded.

GET /values?readout=microsomal CLint&item= Cc1ccc(-n2c(C)nnc2C)cc1S(=O)(=O)NC1CCCC1
20

GET /values?readout=microsomal CLint&item= Cc1sc2c(c1C)C(c1ccc(Cl)cc1)=N[C@@H](CC(=O)OC(C)(C)C)c1nnc(C)n1-2
166

GET /values?readout=microsomal CLint&item= Cc1ccc(-c2c(C)noc2C)cc1S(=O)(=O)NC1CCCC1
461

###

Target: Bromodomain-containing protein 3 (Homo sapiens, UniProt Q15059)
Sequence (Q15059 2-726 limits assumed): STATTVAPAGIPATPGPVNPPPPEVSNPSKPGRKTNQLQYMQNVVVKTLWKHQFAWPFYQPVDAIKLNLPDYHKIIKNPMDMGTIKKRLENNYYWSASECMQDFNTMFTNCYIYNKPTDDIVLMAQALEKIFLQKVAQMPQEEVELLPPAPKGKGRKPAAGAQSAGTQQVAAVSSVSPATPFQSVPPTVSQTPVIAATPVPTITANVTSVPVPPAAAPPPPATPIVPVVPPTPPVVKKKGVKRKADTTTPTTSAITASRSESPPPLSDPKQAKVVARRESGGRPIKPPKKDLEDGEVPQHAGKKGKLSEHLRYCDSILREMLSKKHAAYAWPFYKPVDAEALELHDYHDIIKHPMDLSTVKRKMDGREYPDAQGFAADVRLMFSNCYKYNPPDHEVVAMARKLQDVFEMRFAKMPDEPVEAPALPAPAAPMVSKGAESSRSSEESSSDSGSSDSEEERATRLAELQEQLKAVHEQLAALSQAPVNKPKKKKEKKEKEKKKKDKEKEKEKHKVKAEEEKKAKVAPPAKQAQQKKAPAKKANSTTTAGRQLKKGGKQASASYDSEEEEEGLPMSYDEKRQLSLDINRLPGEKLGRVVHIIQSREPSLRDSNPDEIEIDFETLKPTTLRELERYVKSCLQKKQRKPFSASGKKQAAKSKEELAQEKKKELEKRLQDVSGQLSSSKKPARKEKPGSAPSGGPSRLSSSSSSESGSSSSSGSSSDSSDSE
Test: Inhibition of BRD3 (D1) (unknown origin) at 5 uM incubated for 30 mins using histone H4 peptide (1-21) K5/8/12/16Ac-biotin by alpha screen assay
Calls of active or inactive are those of the source. The calls are words filed in the database; no cut-off is given here.
Answer with one of the outcomes given here: 1 = active, 0 = inactive

// return assay outcome for CC(=O)NCc1ccc(C)c(S(=O)(=O)NC2CCCC2)c1
0

// return assay outcome for COc1ccc(-c2ccc(NC(C)=O)cc2)cc1S(=O)(=O)NC1CCCC1
0

// return assay outcome for COc1ccc(-c2ccc(N)nc2)cc1S(=O)(=O)NC1CCCC1
0

// return assay outcome for COc1ccc(-c2cccc(NC(C)=O)c2)cc1S(=O)(=O)NC1CCCC1
0

// return assay outcome for Cc1ccc(-c2nnn(C)n2)cc1S(=O)(=O)NC1CCCC1
0

// return assay outcome for COc1ccc(-c2c(C)noc2C)cc1S(=O)(=O)NC1CCCC1
1

// return assay outcome for COc1ccc(-c2c(C)nn(C)c2C)cc1S(=O)(=O)NC1CCCC1
0

// return assay outcome for COc1ccc(-c2cc[n+]([O-])cc2)cc1S(=O)(=O)NC1CCCC1
0

// return assay outcome for COc1ccc(-c2c(C)n[nH]c2C)cc1S(=O)(=O)NC1CCCC1
1

// return assay outcome for COc1ccc(-c2cn[nH]c2)cc1S(=O)(=O)NC1CCCC1
0

// return assay outcome for COc1ccc(-c2ccc(N)[n+]([O-])c2C)cc1S(=O)(=O)NC1CCCC1
1

// return assay outcome for CC(=O)Nc1ccc(C)c(S(=O)(=O)NC2CCCC2)c1
0

// return assay outcome for COc1ccc(-c2ccsc2)cc1S(=O)(=O)NC1CCCC1
0

// return assay outcome for Cc1ccc(-n2cnnc2C)cc1S(=O)(=O)NC1CCCC1
0

// return assay outcome for COc1ccc(-c2cccnc2)cc1S(=O)(=O)NC1CCCC1
0

// return assay outcome for Cc1ccc(-n2c(C)nnc2C)cc1S(=O)(=O)NC1CCCC1
0

// return assay outcome for COc1ccc(-c2cn(C)nn2)cc1S(=O)(=O)NC1CCCC1
0

// return assay outcome for Cc1nc(-c2ccc(C)c(S(=O)(=O)NC3CCCC3)c2)no1
0

// return assay outcome for Cc1ccc(-c2nnnn2C)cc1S(=O)(=O)NC1CCCC1
0

// return assay outcome for COc1ccc(-c2ccncc2)cc1S(=O)(=O)NC1CCCC1
0

// return assay outcome for COc1ccc(-c2ccc(N)cc2C)cc1S(=O)(=O)NC1CCCC1
0

// return assay outcome for Cc1ccc(-c2c(C)noc2C)cc1S(=O)(=O)NC1CCCC1
1

// return assay outcome for COc1ccc(-c2ccsc2C)cc1S(=O)(=O)NC1CCCC1
0
